Listing: IC50 of selected molecules
- tgt: recombinant human GST-SYK (Homo sapiens, UniProt P43405)
- measurement_description: Homogeneous Time-Resolved Fluorescence (HTRF) assay for the recombinant human SYK enzyme
- experimental_context: recombinant human GST-SYK 5 pM, ATP 25 μM, 10-dose titration; read-out: rhSYK Activity (IC50)

Here is how some molecules turned out for IC50.
>>> result("CC(C)(C)OC(=O)NCC1CCN(c2ncc(-c3cccc(Nc4nccc(C(F)(F)F)n4)c3)s2)CC1")
"1000 to 10000 nM"
>>> result("Cc1cc(Nc2nccc(C(F)(F)F)n2)cc(-c2cnc(NCc3cc(C)n(C)n3)s2)c1")
"≤ 100 nM"
>>> result("CC1C(=O)NCCN1c1ncc(-c2cccc(Nc3nccc(C(F)(F)F)n3)c2)s1 (centres unmarked)")
"≤ 100 nM"
>>> result("Cc1cc(Nc2nccc(C(F)(F)F)n2)cc(-c2cnc(NCCO)s2)c1")
"≤ 100 nM"
>>> result("CN(Cc1ccccc1)c1ncc(-c2cccc(Nc3nccc(C(F)(F)F)n3)c2)s1")
"100 to 1000 nM"
>>> result("N[C@H]1CCN(c2ncc(-c3cccc(Nc4nccc(C(F)(F)F)n4)c3)s2)C1")
"≤ 100 nM"

IC50 recorded for this molecule, "Oc1ccc(CCNc2ncc(-c3cccc(Nc4nccc(C(F)(F)F)n4)c3)s2)cc1" , is 100 to 1000 nM

IC50 recorded for this molecule, "C=CCN(CC=C)c1ncc(-c2cccc(Nc3nccc(C(F)(F)F)n3)c2)s1" , is ≤ 100 nM

====

- tgt: recombinant human GST-SYK (Homo sapiens, UniProt P43405)
- measurement_description: Homogeneous Time-Resolved Fluorescence (HTRF) assay for the recombinant human SYK enzyme
- experimental_context: recombinant human GST-SYK 5 pM, ATP 25 μM, 10-dose titration; read-out: rhSYK Activity (IC50)
- Description: Homogeneous Time-Resolved Fluorescence (HTRF) Assay for the Recombinant Human SYK Enzyme: A recombinant GST-hSYK fusion protein was used to measure potency of compounds to inhibit human SYK activity. […] The resulting HTRF signal was measured after 30 minutes on a EnVision (Perkin-Elmer) reader using a time-resolved fluorescence protocol.
Listing: IC50 of selected molecules

>>> result("Cc1cc(Nc2nccc(C(F)(F)F)n2)cc(-c2cnc(NCC(O)C(F)F)s2)c1 (centres unmarked) [Example 95]")
"≤ 100 nM"
>>> result("Cc1cc(C)n(CCNc2ncc(-c3cccc(Nc4nccc(C(F)(F)F)n4)c3)s2)n1 [Example 63]")
"100 to 1000 nM"
>>> result("COCC(O)CNc1ncc(-c2cccc(Nc3nccc(C(F)(F)F)n3)c2)s1 (centres unmarked) [Example 50]")
"≤ 100 nM"

IC50 recorded for this molecule, Cc1cc(Nc2nccc(C(F)(F)F)n2)cc(-c2cnc(N3CCC4(CCNC4)CC3)s2)c1 [Example 1] , is ≤ 100 nM

IC50 recorded for this molecule, Cc1cc(Nc2ncc(Cl)cn2)cc(-c2cnc(N3CCCNC(=O)C3)s2)c1 [Example 200] , is ≤ 100 nM

IC50 recorded for this molecule, O=C(COC1CCN(c2ncc(-c3cccc(Nc4nccc(C(F)(F)F)n4)c3)s2)CC1)NC1CC1 [Example 136] , is 100 to 1000 nM

IC50 recorded for this molecule, FC(F)(F)c1ccnc(Nc2cccc(-c3cnc(NCc4cccc(-n5cccn5)c4)s3)c2)n1 [Example 76] , is ≤ 100 nM

IC50 recorded for this molecule, NC(=O)C1CCN(c2ncc(-c3cccc(Nc4nccc(C(F)(F)F)n4)c3)s2)CC1 [Example 191] , is ≤ 100 nM
